Test system: human umbilical vein endothelial cells (HUVEC)
Assay: Cytotoxicity, MTT method, HUVEC non-tumor cells
Assay type: cell-based
Details: HUVEC normal cells, MTT, 48 hours; read-out: IC50
pIC50: −log10 of the molar value.

>  <compound>
[NH2][Pt]([NH2])([Cl])[Cl] [CDDP, cisplatin, reference compound]

>  <target-under-test>
human umbilical vein endothelial cells (HUVEC)

>  <pIC50>
4.16

$$$$

* * *

Tested on: human neuroblastoma cells LA-N-1
Assay: Antitumor activity, MTT method, LA-N-1
Assay type: cell-based
Conditions: LA-N-1, MTT, 48 hours; read-out: IC50
pIC50: −log10 of the molar value.
experimental-readout: pIC50

>  <compound>
[NH2][Pt]([NH2])([Cl])[Cl] [CDDP, cisplatin, reference compound]

>  <experimental-readout>
pIC50

>  <recorded-value>
5.79

$$$$

* * *

System: human neuroblastoma cells NB-39
Assay: Antitumor activity, MTT method, NB-39
Format: cell-based
Conditions: Homo sapiens, NB39, 48 h

>  <compound>
O=C1Nc2ccccc2/C1=C1/Nc2ccccc2/C1=N\OCC1CO1 (stereo not shown) [HS-2, indirubin-3′-(O-oxiran-2-ylmethyl)oxime]

>  <IC50, nM>
550

$$$$

* * *

Tested on: human neuroblastoma cells SK-N-SH
Test: Antitumor activity, MTT method, SK-N-SH
Type: cell-based
Conditions: MTT, 48 hours, read-out: IC50
experimental-readout: IC50

>  <compound>
[NH2][Pt]([NH2])([Cl])[Cl] [CDDP, cisplatin, reference compound]

>  <recorded-value>
12.1 µM

$$$$

* * *

Test system: human neuroblastoma cells LA-N-1
Assay: Antitumor activity, MTT method, LA-N-1
Type: cell-based
Details: Homo sapiens, LAN1, 48 h

>  <molecule>
O=C1Nc2ccccc2/C1=C1/Nc2ccccc2/C1=N\OCC1CO1 (stereo not shown) [HS-2, indirubin-3′-(O-oxiran-2-ylmethyl)oxime]

>  <unit>
µM

>  <IC50>
0.139

$$$$

* * *

System: human neuroblastoma cells IMR-32
Assay: Antitumor activity, MTT method, IMR-32
Assay type: cell-based
Settings: IMR-32, MTT, 48 hours; read-out: IC50
experimental-readout: IC50 (µM)

>  <molecule>
[NH2][Pt]([NH2])([Cl])[Cl] [CDDP, cisplatin, reference compound]

>  <unit>
µM

>  <recorded-value>
28.2

$$$$
